Would you kindly list MIC for each of these molecules?
- Test system: Escherichia coli
- methodDescription: Antibacterial activity against Escherichia coli RCMB 010052 after 24 hrs by twofold serial dilution technique
- Type: functional
- assaySetup: RCMB 010052, 24 h
Answers are plain numbers, in mM.

Worked examples follow.
• Nc1ccc(S(=O)(=O)Nc2nccs2)cc1 [SULFATHIAZOLE] = 100
• O=C(Cn1nc(-c2ccccc2)c2ccccc2c1=O)Nc1ccc(S(=O)(=O)Nc2nccs2)cc1 = 25

Indicate the recorded MIC value for this molecule: COc1ccc(Cc2nn(CCC(=O)Nc3ccc(S(=O)(=O)Nc4ncccn4)cc3)c(=O)c3ccccc23)cc1
50
